molecular target: Gal(b1-3)GlcNAc(b1-6)[Gal(b1-3)]GalNAc; experiment: glycan array binding signal (z-score within array); higher = stronger binding; details: glycan notation: IUPAC condensed, linker removed
Many of the other results were omitted from the sample, so the strongest signals are more common in it than they were.
experimental_endpoint: glycan array binding signal (z-score)
Number only, no unit.

binder="Cohesin-hDECTIN-1 (Homo sapiens) (protein) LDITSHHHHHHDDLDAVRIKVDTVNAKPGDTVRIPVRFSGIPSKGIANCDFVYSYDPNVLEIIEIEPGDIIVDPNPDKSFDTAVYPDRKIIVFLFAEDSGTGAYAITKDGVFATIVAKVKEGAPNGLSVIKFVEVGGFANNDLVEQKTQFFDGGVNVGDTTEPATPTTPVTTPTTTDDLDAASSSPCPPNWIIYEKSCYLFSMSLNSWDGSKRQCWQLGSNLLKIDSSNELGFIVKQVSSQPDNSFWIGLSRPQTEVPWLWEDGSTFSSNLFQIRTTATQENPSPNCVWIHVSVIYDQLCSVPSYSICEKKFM" quantitative_result=-0.299
binder="Si Bti9 1b-HA (Solanum lycopersicum) (protein) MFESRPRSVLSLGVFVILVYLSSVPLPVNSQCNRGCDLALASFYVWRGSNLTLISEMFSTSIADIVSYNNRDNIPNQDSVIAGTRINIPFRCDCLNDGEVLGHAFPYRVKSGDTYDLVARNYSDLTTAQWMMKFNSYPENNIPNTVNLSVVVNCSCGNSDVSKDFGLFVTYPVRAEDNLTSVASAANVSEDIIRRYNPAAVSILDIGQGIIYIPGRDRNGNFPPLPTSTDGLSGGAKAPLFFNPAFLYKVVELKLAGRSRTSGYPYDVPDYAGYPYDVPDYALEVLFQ" quantitative_result=-0.205
binder="AT1G15820(2) (Arabidopsis thaliana), Q9LMQ2 (protein) MAMAVSGAVLSGLGSSFLTGGKRGATALASGVGTGAQRVGRKTLIVAAAAAQPKKSWIPAVKGGGNFLDPEWLDGSLPGDFGFDPLGLGKDPAFLKWYREAELIHGRWAMAAVLGIFVGQAWSGVAWFEAGAQPDAIAPFSFGSLLGTQLLLMGWVESKRWVDFFNPDSQSVEWATPWSKTAENFANYTGDQGYPGGRFFDPLGLAGKNRDGVYEPDFEKLERLKLAEIKHSRLAMVAMLIFYFEAGQGKTPLGALGL" quantitative_result=0.112
binder="Langerin K313I (Homo sapiens), Q9UJ71 (protein) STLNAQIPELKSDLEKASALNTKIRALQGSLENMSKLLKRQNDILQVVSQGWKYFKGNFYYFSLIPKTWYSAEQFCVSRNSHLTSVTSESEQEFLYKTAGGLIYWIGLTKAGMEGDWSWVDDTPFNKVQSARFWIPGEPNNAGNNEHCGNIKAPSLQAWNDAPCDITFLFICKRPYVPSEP" quantitative_result=-0.253

# query: glycan array binding signal (z-score) of entry Ovorubin (Pomacea canaliculata), J7I2T6 (protein) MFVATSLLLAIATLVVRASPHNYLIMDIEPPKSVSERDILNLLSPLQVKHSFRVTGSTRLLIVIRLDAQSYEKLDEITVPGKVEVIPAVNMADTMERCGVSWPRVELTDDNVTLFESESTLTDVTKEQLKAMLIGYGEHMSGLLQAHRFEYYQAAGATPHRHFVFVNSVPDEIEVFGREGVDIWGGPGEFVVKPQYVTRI
0.3
